Origin of values: patent US9650369B2

# Cytotoxicity (Survival at 1 μM) per record follows
# ASSAY PROTOCOL: cytotoxicity of additional thiazole compounds (Table 3)
# Format: cell-based
# EXPERIMENTAL CONTEXT: cell line not given
Express it in %; write the number only.

O=C(Nc1nc(-c2cccc(Br)c2)cs1)c1ccccc1 [Compound 14c] :: 78.0
COc1cc(-c2csc(NC(=O)c3ccccc3)n2)cc(OC)c1OC [Compound 14g] :: 95.0
Cc1csc(NC(=O)c2ccccc2)n1 [Compound 14a, N-(4-Methylthiazol-2-yl)benzamide] :: 103.1
Cc1sc(NC(=O)c2ccccc2)nc1-c1ccc(F)cc1 [Compound 14i] :: 53.7
COc1cccc(C(=O)N(C)c2nc(-c3cc(OC)c(OC)c(OC)c3)cs2)c1 [Compound 16m] :: 88.9
COc1cc(-c2csc(NC(=O)c3cccc(OC)c3OC)n2)cc(OC)c1OC [Compound 14p] :: 90.1
COc1ccc(C(=O)N(C)c2nc(-c3cc(OC)c(OC)c(OC)c3)cs2)cc1OC [Compound 16h] :: 101.9
CN(C(=O)c1ccccc1)c1nc(-c2ccc(Br)cc2)cs1 [Compound 16c] :: 65.4

Shift focus to the following entry.
*Q* Name the reported Cytotoxicity (Survival at 1 μM) value associated with the compound `CCCCCCCCCCCCn1c(-c2ccc(C)cc2C)csc1=NC(=O)c1ccccc1`
*A* 109.5
